# Test system: Italian ryegrass
# measurement_notes: Test E Italian ryegrass
# Type: in vivo, Lolium multiflorum
# run_parameters: Preemergence, Rate 62 g/ha; 0 to 100 scale, 0 no effect, 100 complete control
Form field: Plant response rating, I. Ryegrass (one value per entry).
Answer as a number with no unit attached.

The cases that follow already have their Plant response rating, I. Ryegrass on record.
{"structure_smiles": "CC(C)N(C(=O)n1oc(=O)n(C(C)C)c1=O)c1ccc(F)cc1", "measurement_target": "Italian ryegrass", "Plant response rating, I. Ryegrass": 70}
{"structure_smiles": "CCn1c(=O)on(C(=O)N(c2ccccc2)C(C)C)c1=O", "measurement_target": "Italian ryegrass", "Plant response rating, I. Ryegrass": 50}
{"structure_smiles": "C=C(C)CCn1c(=O)on(C(=O)N(c2ccc(F)cc2)C(C)C)c1=O", "measurement_target": "Italian ryegrass", "Plant response rating, I. Ryegrass": 70}

From here, focus on the item given below.
Ask: Which Plant response rating, I. Ryegrass value belongs to "CC(C)N(C(=O)n1oc(=O)n(N(C)C)c1=O)c1ccccc1" ?
Result: 30

* * *

Below: a set of entries, each annotated with reported Plant response rating, Barley (winter).
# Test system: winter barley
# measurement_notes: Test E winter barley
# Type: in vivo, Hordeum vulgare
# run_parameters: Preemergence; Rate 500 g/ha; 0 to 100 scale where 0 is no effect and 100 is complete control
Hey, just send me the number, nothing else.

{"structure_smiles": "CC(C)N(C(=O)n1oc(=O)n(C2CCCCC2)c1=O)c1ccc(F)cc1F", "Plant response rating, Barley (winter)": 20}
{"structure_smiles": "C=CCn1c(=O)on(C(=O)N(c2ccc(Cl)cc2)C(C)C)c1=O", "Plant response rating, Barley (winter)": 10}
{"structure_smiles": "Cc1nc(C)c(Cn2c(=O)on(C(=O)N(c3ccc(F)cc3)C(C)C)c2=O)s1", "Plant response rating, Barley (winter)": 20}

Ask: # query: Plant response rating, Barley (winter) of entry "CCc1cccc(C)c1-n1c(=O)on(C(=O)N(c2ccc(F)cc2)C(C)C)c1=O"
Result: 20

Ask: GET /values?readout=Plant response rating, Barley (winter)&item= "CC(C)N(C(=O)n1oc(=O)n(C(C)(C)C)c1=O)c1ccc(Cl)cc1"
Result: 50

Ask: What measured Plant response rating, Barley (winter) goes with "Cc1cccc(C)c1-n1c(=O)on(C(=O)N(c2ccc(F)cc2)C(C)C)c1=O" ?
Result: 30

* * *

# System: morningglory
# measurement_notes: Test B pre/postemergence morningglory
# Assay type: in vivo, Ipomoea hederacea
# run_parameters: Preemergence, Rate 125 g/ha; 0 is no effect, 10 is complete control
# Description: […] At the same time, these crop and weed species were also treated with postemergence applications of test chemicals formulated in the same manner. […] Treated plants and controls were maintained in a greenhouse for twelve to sixteen days, after which all species were compared to controls and visually evaluated. […]
Collected Morningglory plant response rating (0 to 10 scale) values appear next to each entry.

{"molecule": "Cc1ccccc1-n1c(=O)on(C(=O)N(c2ccc(Br)cc2)C(C)C)c1=O [Compound 175]", "measurement_target": "morningglory", "data_value": 0}
{"molecule": "CC(C)c1noc(C(C)C)c1-n1c(=O)on(C(=O)N(c2ccc(F)cc2)C(C)C)c1=O [Compound 135]", "measurement_target": "morningglory", "data_value": 0}
{"molecule": "CC(C)N(C(=O)n1oc(=O)n(C(C)C)c1=O)c1ccc(F)cc1 [Compound 131]", "measurement_target": "morningglory", "data_value": 3}

Ask: Dear colleague, I am looking for the recorded Morningglory plant response rating (0 to 10 scale) of the following molecule: C=C(C)CCn1c(=O)on(C(=O)N(c2ccc(F)cc2)C(C)C)c1=O [Compound 199]
Result: 0
